All figures here come from PubChem BioAssay (NCI).

Overview of recorded TGI for various compounds
# Test system: EKVX NSCLC
# PROTOCOL TEXT: NCI tumour cell line growth inhibition, 48 h

Solved cases (3 shown):
{"COMPOUND": "O=C(N/N=C/c1ccccc1)c1cccc2nc3ccccc3nc12", "TGI": "> 100 µM"}
{"COMPOUND": "CC(=O)N(C(C)=O)c1cc2c3c(c1)CCCN3CCC2", "TGI": "> 10 µM"}
{"COMPOUND": "COC(=O)C12OC3CO[Si](C(C)C)(C(C)C)O[Si](C(C)C)(C(C)C)OC3C1Oc1nc(=O)ccn12 (stereo unspecified)", "TGI": "30.7 µM"}

Field request: TGI | item: CC(=O)OC(Cc1c(O)c2c(C)cccc2oc1=O)C(C)(C)O (stereo unspecified)
> 100 µM

Check C[C@]12CC[C@@H]3c4ccc(O)cc4CC[C@H]3[C@@H]1Cc1cnc(N)nc12 too.
34.9 µM

Check C[C@]12CCC(=O)CC1CCCC2=O (stereo partly specified) too.
> 100 µM
